- measurement_description: yeast display, Sf9 membrane polyspecificity reagent, FACS + sequencing; frameworks hold sequencing errors

macromolecule_sequence | polyreactivity (PSR sort gate)
QVQLVESGGGLVKAGGSLRLSCAASGRIFGRYAMGWYRQAPGKEREFVAAISKRGGGTYYADSVKGRFTISRDNAKNTVYLQMNSLKPEDTAVYYCAVDNSPGFDDYDYWGQGTQVTVSS | high polyreactivity
QVQLVESGGGLVQAGGSLRLCCAASGSTFTLYAMGWYSQAPGKVRELVAAISWSTTSTYYAHSVKGRFTISRDNAKNTVSLQMNSLKPEDTAVYYCAAELYRAEYDYWGQGTQVTVSS | high polyreactivity

* * *

- measurement_description: yeast display, Sf9 membrane polyspecificity reagent, FACS + sequencing; frameworks hold sequencing errors
parameter: polyreactivity (PSR sort gate)

Use these answered entries as a reference point.
macromolecule_sequence | polyreactivity (PSR sort gate)
QVQLVESGGGLVPAGGSLRLSCAASGRTFYSYGMGWYRQAPGKERELVASISSSTGSTYYADSVKGRFTISRDNAKNTVYLQMNSLKPEDTAVYYCAKRYSWTRRYDYWGQGTQVTVSS | high polyreactivity
QVQLVESGGGLVQAGGNLRLSCAASGFIFTRYAMGWYRQAPGKERELVAAISTSGDRTYYADSVKGRFTISRDNAKNTVYLQMNSLKPEDTAVYYCATSKSYSSKLYDYWGQGTQVTVSS | high polyreactivity
QVQLVESGGGLVQAGGSLRLSCAASGSIFNYYAMGWYRQAPGKERELVATISSGGNTKYADSVKGRFTISRDNAKNTVYLQMNSLKPEDTAVYYCAARWQHSGYRDRYWYDYWGQGTQVTVSS | low polyreactivity
QVQLVESGGALVQAGGRLRLSCAASGSILVTNDMGLYRQAPGKDRELEAAICWSGGSTYYADSVKGRFTISRDNAKNSVYLQMNSLKPEDTAVYYCAAGLGFLFARQALEFDYWGQGTKVTVSS | low polyreactivity
QVQLVESGGGLVQAGGSLRLSCAASGFTFRGYAMGWYRQAPGKERELVAAITAGGGSTSYADSVKGRFTISRDNAKNTVYLQMNSLKPEDTGVYYCARRPGTRTYLSKWGSKYDYWGQGTQVTVSS | high polyreactivity

// polyreactivity (PSR sort gate) lookup, sequence = QVQLVESGGGLVQAGGSLRLSCAASGSTIYYNAMGWYRQAPGKERELVAAISKSSSRTYYADSVKGRFTISRDNAKYSVYLQMNSLKPEDTAVYYCAADAVYYHFDYWGQGTQVTVSS , result: high polyreactivity

// polyreactivity (PSR sort gate) lookup, sequence = QVQLVESGGGLVQAGGSLRLSCAASGLTFYDYAMGWYRQAPGKERELVADIDFNGGSTSYADSVKGRFTISRDNAKNTVYLQMNSLKPEDSAVYYCNSRDRGDVVTGLDYWGQGTQVTVSS , result: low polyreactivity

// polyreactivity (PSR sort gate) lookup, sequence = QVQLVESGGGLVQAGGSLRLSCAASGSIFGKYAMGWYRQAPGKERELVAAITWSGGSTRYADSVKGRFTISRDNAKNTVYLQMNSLKPEDTAVYYCAAPSTESKYYYWGQGTQVTVSS , result: high polyreactivity

// polyreactivity (PSR sort gate) lookup, sequence = QVQLVESGGGLVQAGGSLRLSCAASGSISGYYVMGWYRQAPGKERELVAAITWRGGSTYYADSVKGSFTISRDNAKNTVYLQMNSLKPEDTAVYYCNKVPGRRSTFEYWGQGTQVTVSS , result: high polyreactivity

// polyreactivity (PSR sort gate) lookup, sequence = QVQLVESGGGLVQAGGSLRLSCAASGSIFIYYAIGWYRKAPGKERELVAAIDRSGGNTYYADSVKGRFTISRDNAKNTVYLQMNSLKPEDTAVYYCAALVHRRVQYDYWGQGTQVTVSS , result: high polyreactivity

// polyreactivity (PSR sort gate) lookup, sequence = QVQLVESGGGLVQAGGSLRLSCAASGRTFRGNVMGWYRQAPGKEREFVAAITKSDGSTYYADSVKGRFTISRDNAKNTVYLQMNSLKPEDTAVYYCAARTARTGWPWFRYDYWGQGTQVTVSS , result: low polyreactivity
